# credit: paper PMC12587574

# procedure_text: Plasma pharmacokinetics of acoziborole and SCYX-3109 by LC-MS/MS, phase I mass balance study
# Format: in vivo, human
# experimental_parameters: human, plasma, po, 960 mg, 960 mg single oral dose of acoziborole, N = 6, mean ± SD; read-out: tmax in plasma
measured_parameter: Tmax
Please state the value followed by its unit.

{"smiles_record": "CC(C)(O)c1ccc(NC(=O)c2ccc(F)cc2C(F)(F)F)cc1O", "measured_parameter": "Tmax", "reported_value": "76.1 h"}

Turning now to a further molecule:
Quick check: Tmax of CC1(C)OB(O)c2cc(NC(=O)c3ccc(F)cc3C(F)(F)F)ccc21 ?
52 h

---

For each record, write down the corresponding AUC(0-t).
# procedure_text: Plasma pharmacokinetics of acoziborole and SCYX-3109 by LC-MS/MS, phase I mass balance study
# Format: in vivo, human
# experimental_parameters: human, plasma, po, 960 mg, 960 mg single oral dose of acoziborole, N = 6, mean ± SD; read-out: AUC0–240h in plasma
Answers are plain numbers, in µg·h/mL.

{"smiles_record": "CC1(C)OB(O)c2cc(NC(=O)c3ccc(F)cc3C(F)(F)F)ccc21", "AUC(0-t) (µg·h/mL)": 2520}

Quick check: AUC(0-t) of CC(C)(O)c1ccc(NC(=O)c2ccc(F)cc2C(F)(F)F)cc1O ?
4.37

---

# procedure_text: Plasma pharmacokinetics of acoziborole and SCYX-3109 by LC-MS/MS, phase I mass balance study
# Format: in vivo, human
# experimental_parameters: male, human, plasma, po, 960 mg, 960 mg single oral dose of acoziborole, N = 6, mean ± SD; read-out: t1/2 in plasma (converted)
measured_parameter: half-life (days)
Answers are plain numbers, in days.

Quick check: half-life of CC1(C)OB(O)c2cc(NC(=O)c3ccc(F)cc3C(F)(F)F)ccc21 ?
11.3

---

# procedure_text: Plasma pharmacokinetics of acoziborole and SCYX-3109 by LC-MS/MS, phase I mass balance study
# Assay type: in vivo, human
# experimental_parameters: male, human, plasma; 960 mg single oral dose of acoziborole, healthy males, N = 6, mean ± SD
measured_parameter: Cmax (ng/mL)
Numbers only, in ng/mL.

{"smiles_record": "CC(C)(O)c1ccc(NC(=O)c2ccc(F)cc2C(F)(F)F)cc1O", "scale_unit": "ng/mL", "Cmax": 30.5}

Turning now to a further molecule:
Quick check: Cmax of CC1(C)OB(O)c2cc(NC(=O)c3ccc(F)cc3C(F)(F)F)ccc21 ?
14200
